Can you tell me IC50 for the items I'm about to list?
- system name: human TLR8 (Homo sapiens, UniProt Q9NR97)
- experiment notes: TLR8 inhibition reporter assay (HEK-Blue cells, SEAP reporter, R848 stimulation)
- test parameters: HEK-Blue cells overexpressing human TLR8, SEAP reporter, R848 15.9 μM
- Description: TLR7/8/9 Inhibition Reporter Assays HEK-Blue™-cells (Invivogen) overexpressing human TLR7, TLR8 or TLR9 receptors were used for screening inhibitors of these receptors using an inducible SEAP (secreted embryonic alkaline phosphatase) reporter gene under the control of the IFN-β minimal promoter fused to five NF-κB and AP-1-binding sites. […]
Numeric only. Scale: nM

If you can, please state the reported IC50 value of Cc1cc(-c2[nH]c3ccc(CCN4CCOCC4)cc3c2C(C)C)cn(C)c1=O [Example 403] . 7.5

What does the record list as IC50 for Cc1cc(-c2[nH]c3ccc(CCN4CCCC(F)C4)cc3c2C(C)C)cn(C)c1=O (stereo not drawn) [Example 406] ? 3.2

# get_value(readout='IC50', item= Cc1c(-c2[nH]c3ccc(C4CCC(N5CC(CO)(CO)C5)CC4)cc3c2C(C)C)cn2ncnc2c1C (single isomer, unassigned) [Example 27] ) 2.8

Form field: reported IC50 of Cc1cc(-c2[nH]c3ccc(C4CN(C)CCO4)cc3c2C(C)C)cn2ncnc12 (stereo not drawn) [Example 297] 0.61

For Cc1c(-c2[nH]c3ccc(CC4CN(C(=O)CN(C)C)C4)cc3c2C(C)C)cn2ncnc2c1C [Example 436] , what is its reported IC50? 11

What value of IC50 has been reported for the following molecule? Cc1c(-c2[nH]c3ccc(C4CCC(N(C)C)CC4)cc3c2C(C)C)cn(C)c(=O)c1C (stereo not drawn) [Example 476] 2.6

State the recorded IC50 for this entry: Cc1cc(-c2[nH]c3ccc(C4CCCN(Cc5c[nH]c(C)n5)C4)cc3c2C(C)C)cc(C)n1 (stereo not drawn) [Example 246] 16

Reported IC50 for Cc1c(-c2[nH]c3ccc(C4CN(CC(N)=O)C4)cc3c2C(C)C)cn2ncnc2c1C [Example 548] : what is it? 5.1

Value lookup for IC50; key = Cc1cc(-c2[nH]c3ccc([C@H]4C[C@H]4C(=O)NC4CCC5CNCC54)cc3c2C(C)C)ccn1 (stereo partly drawn) [Example 453] 66

What measured IC50 goes with Cc1c(-c2[nH]c3ccc(CC4CN(CCS(C)(=O)=O)C4)cc3c2C(C)C)cn2ncnc2c1C [Example 437] ? 4.2

Quick one: IC50 of CNCCN1CCCC(c2ccc3[nH]c(-c4ccc(OC)c(OC)c4)c(C(C)C)c3c2)C1 (stereo not drawn) [Example 254] ? 16

Look up IC50 for this molecule: COc1cc(-c2[nH]c3ccc(C4CN(C(=O)CN(C)C)CCO4)cc3c2C(C)C)cn2ncnc12 (stereo not drawn) [Example 332] 6.2

----------
For each of the compounds below, state its pIC50.
- system name: human TLR8 (Homo sapiens, UniProt Q9NR97)
- Sequence (Q9NR97 27-1041): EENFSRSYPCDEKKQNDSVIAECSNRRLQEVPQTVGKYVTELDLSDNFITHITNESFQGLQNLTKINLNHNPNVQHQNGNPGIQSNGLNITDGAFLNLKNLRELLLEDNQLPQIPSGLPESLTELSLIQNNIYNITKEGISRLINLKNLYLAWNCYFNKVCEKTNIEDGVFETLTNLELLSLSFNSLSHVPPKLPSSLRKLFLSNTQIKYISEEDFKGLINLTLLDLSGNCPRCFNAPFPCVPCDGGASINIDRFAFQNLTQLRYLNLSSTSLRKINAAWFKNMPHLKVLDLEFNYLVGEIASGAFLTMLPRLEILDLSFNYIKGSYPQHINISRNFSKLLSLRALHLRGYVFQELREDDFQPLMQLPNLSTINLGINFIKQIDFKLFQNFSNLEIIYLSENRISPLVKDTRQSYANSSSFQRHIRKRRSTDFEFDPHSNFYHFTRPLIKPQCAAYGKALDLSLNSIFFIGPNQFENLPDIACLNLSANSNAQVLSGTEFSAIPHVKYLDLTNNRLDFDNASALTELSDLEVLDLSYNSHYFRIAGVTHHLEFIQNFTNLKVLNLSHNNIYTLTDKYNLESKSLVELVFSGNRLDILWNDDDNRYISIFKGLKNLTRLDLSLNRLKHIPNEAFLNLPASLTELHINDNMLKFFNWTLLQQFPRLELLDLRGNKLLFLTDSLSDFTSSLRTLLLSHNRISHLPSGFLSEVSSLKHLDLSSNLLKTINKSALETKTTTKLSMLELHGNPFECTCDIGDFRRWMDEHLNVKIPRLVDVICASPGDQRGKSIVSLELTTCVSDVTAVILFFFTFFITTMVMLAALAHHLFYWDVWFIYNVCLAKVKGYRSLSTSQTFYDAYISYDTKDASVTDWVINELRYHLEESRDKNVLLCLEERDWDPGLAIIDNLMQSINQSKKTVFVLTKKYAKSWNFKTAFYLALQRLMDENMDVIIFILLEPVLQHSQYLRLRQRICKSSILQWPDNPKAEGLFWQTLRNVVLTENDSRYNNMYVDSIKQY
- experiment notes: TLR8 inhibition reporter assay (HEK-Blue cells, SEAP reporter, R848 stimulation)
- test parameters: HEK-Blue cells overexpressing human TLR8, SEAP reporter, R848 15.9 μM
Reminder that pIC50 means the negative base-10 logarithm of the concentration expressed in mol/L.

Can you share its pIC50? I mean this compound: COc1cc(-c2[nH]c3ccc(C4CCC(NC(=O)CNC5COC5)CC4)cc3c2C(C)C)cn2ncnc12 (stereo not shown) [Example 137] 8.31

For Cc1cc(-c2[nH]c3ccc([C@@H]4C[C@H]4C(=O)NC4CC5CCN4CC5)cc3c2C(C)C)ccn1 (stereo partly shown) [Example 460] , what is its reported pIC50? 7.51

Consider the compound shown here: COc1cc(-c2[nH]c3ccc(C4CCCN(CC(=O)N(C)C)C4)cc3c2C(C)C)cn2ncnc12 (stereo not shown) [Example 224] What is its recorded pIC50? 7.80

// returns reported pIC50 for input Cc1c(-c2[nH]c3ccc(C4CC5CN(CC(=O)N(C)C)CC5C4)cc3c2C(C)C)cn2ncnc2c1C (stereo not shown) 7.85

----------
- system name: human TLR8 (Homo sapiens, UniProt Q9NR97)
- Construct: host or cells: HEK-Blue cells
- experiment notes: TLR8 inhibition reporter assay (HEK-Blue cells, SEAP reporter, R848 stimulation)
- Assay type: cell-based
- test parameters: HEK-Blue cells overexpressing human TLR8, SEAP reporter, R848 15.9 μM
Checkbox rule: IC50 lower than 20 nM = true (1); IC50 not lower than 20 nM = false (0).

Please check: IC50 for Cc1c(-c2[nH]c3ccc(C4CC(NC5COC5)C4)cc3c2C(C)C)cn2ncnc2c1C (stereo not drawn) [Example 575] , strictly under 20 nM or not? true (1)

Hello, is IC50 of the following compound strictly smaller than 20 nM? COc1cc(-c2[nH]c3ccc(C4CCC(N5CCOCC5)CC4)cc3c2C(C)C)cn2ncnc12 (stereo not drawn) [Example 69] true (1)

Lab note: IC50 threshold 20 nM. Does this compound come in strictly under it? Cc1c(-c2[nH]c3ccc(C4CCC(NC(=O)CN(C)C)CC4)cc3c2C(C)C)cn(C)c(=O)c1C (stereo not drawn) [Example 471] true (1)

Confirm or reject: IC50 of `Cc1c(-c2[nH]c3ccc(C4CN(C(C)C)C4)cc3c2C(C)C)cn(C)c(=O)c1C` lies strictly below 20 nM true (1)

In plain terms, does Cc1cc(-c2[nH]c3ccc(C4CN(CC(=O)N(C)C)CCO4)cc3c2C(C)C)cn2ncnc12 (stereo not drawn) [Example 306] come in under 20 nM for IC50? false (0)

Criterion: IC50 strictly below 20 nM. Is it met by COc1cc(-c2[nH]c3ccc(C4CCC(N5CC(O)C5)CC4)cc3c2C(C)C)cn2ncnc12 (single isomer, unassigned) [Example 20] ? true (1)

Please let me know if CNC(=O)CNC1CCC(c2ccc3[nH]c(-c4cc(C)nc(C)c4)c(C(C)C)c3c2)CC1 (single isomer, unassigned) [Example 180] shows IC50 below 20 nM. true (1)

Strictly below 20 nM: is that where IC50 of `CNCC(=O)N1CC(c2ccc3[nH]c(-c4cc(C)c5ncnn5c4)c(C(C)C)c3c2)C1` sits? true (1)

Lab note: confirm whether the reported IC50 for this compound is below 20 nM, equality not counting. compound: Cc1cc(-c2[nH]c3ccc(C4CCCN(C(=O)CN5CCOCC5)C4)cc3c2C(C)C)cc(C)n1 (stereo not drawn) [Example 197] true (1)

Here's an entry: COc1cc(-c2[nH]c3ccc(C4CCC(N)CC4)cc3c2C(C)C)cn2ncnc12 (single isomer, unassigned) [Example 1] . Is its IC50 below 20 nM? true (1)

Is 20 nM strictly greater than the compound's reported IC50? compound: CNCC(=O)N1CCCC(c2ccc3[nH]c(-c4cc(OC)c5ncnn5c4)c(C(C)C)c3c2)C1 (stereo not drawn) [Example 212] true (1)

Lab log: compare recorded IC50 with 20 nM; is it strictly lower for Cc1cc(-c2[nH]c3ccc(C4CCC(O)CC4)cc3c2C(C)C)ccn1 (stereo not drawn) [Example 174] ? false (0)

Item Cc1c(-c2[nH]c3ccc(C4CC5CN(C6COC6)CC5C4)cc3c2C(C)C)cn2cnnc2c1C (stereo not drawn) : IC50 beneath 20 nM, strictly? false (0)

Criterion: IC50 strictly below 20 nM. Is it met by Cc1cc(-c2[nH]c3ccc(C4CN(CC(=O)N(C)C)C(C)(C)CO4)cc3c2C(C)C)cn2ncnc12 (single isomer, unassigned) ? false (0)

Does this compound meet the criterion IC50 < 20 nM? Cc1c(-c2[nH]c3ccc(C4CC(NC(=O)CN(C)C)C4)cc3c2C(C)C)cn2ncnc2c1C (stereo not drawn) [Example 573] true (1)

Please state whether IC50 is below 20 nM for Cc1cc(-c2[nH]c3ccc(C4CCCN(C(=O)C5(C)CC5)C4)cc3c2C(C)C)cc(C)n1 (stereo not drawn) [Example 202] false (0)

Hi there! Is IC50 for COCCN(C)C1CCC(c2ccc3[nH]c(-c4cn5ncnc5c(C)c4C)c(C(C)C)c3c2)CC1 (single isomer, unassigned) [Example 153] below 20 nM, do you know? true (1)

Please determine if `Cc1cc(-c2[nH]c3ccc([C@@H]4C[C@H]4C(=O)NC4CCN(C(C)C)CC4)cc3c2C(C)C)ccn1` is below 20 nM in terms of IC50. false (0)

Please indicate whether the reported IC50 of COc1cc(-c2[nH]c3ccc(C4CCC(NC(=O)CN5CCCC5)CC4)cc3c2C(C)C)cn2ncnc12 (stereo not drawn) is strictly below 20 nM. true (1)

Is the reported IC50 for Cc1c(-c2[nH]c3ccc(C4CCC(NC5COC5)CC4)cc3c2C(C)C)cn2cnnc2c1C (stereo not drawn) [Example 523] strictly below 20 nM? true (1)
